// data source = the array DNA melting data of Ke et al. (doi:10.1101/2024.01.08.574731)

# folding enthalpy annotations
Assay method text: folding enthalpy; higher = less favourable; fluorescence melt of hairpins on a sequencing array, two-state fit
Study conditions: sodium 0.088 M

Sequence input: GCGGTGGCGAAAGCCCGC (((..(((....))))))
folding enthalpy / kcal/mol: -23.3
//
Sequence input: GATCTATTCATAGATC ((((((....))))))
folding enthalpy / kcal/mol: -35.8
//
Sequence input: GAGGCCGGAAACGGTCTC (((.(((....))).)))
folding enthalpy / kcal/mol: -36
//
Sequence input: GCTTTCGAAAGAAGAGC ((((((....))).)))
folding enthalpy / kcal/mol: -17.5
//
Sequence input: GCGGAGCTCCGC ((((....))))
folding enthalpy / kcal/mol: -20.9
//
Sequence input: GGGCACGAAAGTGAGCCC ((((((....)))..)))
folding enthalpy / kcal/mol: -32.9

###

Assay method text: folding enthalpy; higher = less favourable; fluorescence melt of hairpins on a sequencing array, two-state fit
Study conditions: sodium 0.088 M
// label = T if folding enthalpy is not less than -20 kcal/mol, otherwise F

Sequence input: GCTAGGCGAAAGCAGAGC (((..((....))..)))
Class: F
//
Sequence input: CGCGGACAGTTCCGCG ((((((....))))))
Class: F
//
Sequence input: GGCAGAGGAAACTCCGCC (((.(((....))).)))
Class: F
//
Sequence input: GGGTCCGGAAACAGACCC (((((.(....).)))))
Class: F
//
Sequence input: GCAATGCGAAAGCCTCGC ((.(.((....)).).))
Class: T
//
Sequence input: GGCAGCGAAAGCTCGCC ((((((....))).)))
Class: F
//
Sequence input: GAGAAACCGAAAGGTCTC (((..(((....))))))
Class: T
//
Sequence input: GCGAATGCTCGC ((((....))))
Class: T
//
Sequence input: GATCAACCGAAAGGTATC (((..(((....))))))
Class: T
//
Sequence input: GTTTCCGGAAACAGAAAC (((((.(....).)))))
Class: T
//
Sequence input: GCAGTCGAAAGACCGTGC ((((((....)))..)))
Class: T
//
Sequence input: GATCCATATCTGGATC ((((((....))))))
Class: F
//
Sequence input: GCGGTCGGAAACGGCTGC ((.(.((....)).).))
Class: F
//
Sequence input: GATTGTGGAAACACAACC (.(((((....))))).)
Class: T
//
Sequence input: GATCCAACTTTGGATC ((((((....))))))
Class: F
//
Sequence input: GATCTTGCCAAGATC ((((((...))))))
Class: F
//
Sequence input: GGAATGGGAAACTGTTCC ((((..(....)..))))
Class: F
//
Sequence input: GCCATCCCGAAAGGGGGC (((..(((....))))))
Class: T
//
Sequence input: GATTGCGAAAGCATTATC ((((((....)))..)))
Class: T
//
Sequence input: GATCTGGAACAGATC ((((((...))))))
Class: F
//
Sequence input: GACACCGGAAACGGTATC ((.((((....)))).))
Class: T
//
Sequence input: GCGGTCGAAAGACTTCGC ((((((....)))..)))
Class: F
//
Sequence input: GGTGAGGCGAAAGCCACC (((..(((....))))))
Class: T
//
Sequence input: GCTGTGCGAAAGCATTGC ((..(((....)))..))
Class: F
//
Sequence input: GGAGAGGAAACTCTCC ((((((....))))))
Class: F
